The values you see were collected from patent US20110086899A1.

Assay: in vivo pharmacokinetic profile after oral administration to dogs
Set-up: species or system male beagle dogs
Details: male, beagle, dog; fasted dogs, single PO dose 100 mg capsule (Table 4) or 400 mg (4×100 mg capsule), plasma
parameter: Cmax

Data request: So what does the record say about Cmax for O=C1N(Cc2ccc(C(F)(F)F)o2)c2ccccc2[C@]12COc1cc3c(cc12)OCO3 ?
Data returned: 1300 to 1600 ng/mL
